system: SF-295 CNS; assay: NCI tumour cell line growth inhibition, 48 h; in the data active means GI50 below about 0.43 µM; inactive means the rest
Answer with one of the outcomes given here: active, inactive

Some solved entries appear below for comparison.
COc1cc(OC)cc(-c2n[nH]nc2-c2ccc3c(c2)OCO3)c1: active
CC(=N\O)/C(C)=N/O.CC(=N\O)/C(C)=N/O.[Pd]: inactive
COC(=O)c1ccc2c(c1)[n+](=O)c(C(C)=O)c(C(F)(F)F)n2[O-]: inactive
O=C(NCCc1ccccc1)C(c1csc2ccccc12)N(C(=O)CCl)c1ccc(-c2cnco2)cc1 (stereo not drawn): active
COc1ccc(OC)c(-c2cc(-c3ccc(Cl)cc3)nn2-c2ccc(S(N)(=O)=O)cc2)c1: inactive

Inquiry: Record request — test call for COc1ccc(CNCCN2C(=O)c3ccc4c5c(ccc(c35)C2=O)C(=O)N(CCNCc2ccc(OC)cc2)C4=O)cc1
Reply text: active

Inquiry: Record request — test call for COc1ccc(/C(C#N)=C/c2nc3c(N4CCOCC4)nc(Cl)nc3n2C)cc1OC
Reply text: active

Inquiry: Record request — test call for COC(=O)C1=C(O)C(C(=O)OC)[C@@]2(O)[C@@H](C(=O)OC)C(c3ccc(OC(=O)C(Cc4ccccc4)NC(C)=O)cc3)C[C@@H]1[C@@H]2C(=O)OC (stereo partly drawn)
Reply text: inactive

---

What TGI was measured for each of the following?
tested on: KM12 colon; assay: NCI tumour cell line growth inhibition, 48 h
Give bare numbers, in µM.

Record excerpt, results attached:
COC(=O)C1=C(O)C(C(=O)OC)[C@@]2(O)[C@@H](C(=O)OC)C(c3ccccc3C(F)(F)F)C[C@@H]1[C@@H]2C(=O)OC (some centres not stated): 32.8
CC(=N\O)/C(C)=N/O.CC(=N\O)/C(C)=N/O.[Pd]: 8.01

// sample Cc1cc([C@H](C#N)c2nc3ccccc3s2)nc(Cl)n1 , its TGI was 9.08

---

tested on: UACC-62 melanoma; assay: NCI tumour cell line growth inhibition, 48 h
Reported property: TGI

# per-item lookup of TGI; items listed below
1. Nc1nc(Cl)cc2c1ncn2C1OC(CO)C(O)C1O (stereo not given)
2. COc1cccc(-n2cnc3c(N/N=C/c4ccncc4)ncnc32)c1
3. O=C1NC(N2CCOCC2)=N/C1=C\c1ccccc1
4. CCOC(=O)Cn1c(=O)c2cc(C)cc3c(Cl)nc4c(OC)c(OC)cc1c4c32
5. O=C(N/C(=C\c1cc(Cl)ccc1Cl)c1nc2ccccc2[nH]1)c1ccccc1

Reply text:
["> 100 µM", "> 25 µM", "> 100 µM", "> 100 µM", "> 100 µM"]

---

What TGI was measured for each of the following?
system: RXF 393 renal; test: NCI tumour cell line growth inhibition, 48 h

Record excerpt, results attached:
O=C(CSCC(=O)N/N=C/c1ccc(F)cc1)N/N=C/c1ccc(F)cc1: > 100 µM
COc1ccc(NC(=O)c2cc(NC(=O)/C=C/c3ccccc3)c(OC)c(OC)c2)cc1: > 100 µM

# per-item lookup of TGI; items listed below
1. Cc1cc(S(=O)(=O)Nc2nc(N)n(-c3ccccc3)n2)c(S)cc1Cl
2. c1cc(C2O[C@H]3CCCN3[C@@H]2c2ccncc2)ccn1 (stereo partly specified)
3. COc1cc(CNc2nc3cc(C(F)(F)F)ccc3nc2C(=O)O)cc(OC)c1OC

Reply text:
["> 100 µM", "> 100 µM", "> 100 µM"]

// sample Cc1cc([C@H](C#N)c2nc3ccccc3s2)nc(Cl)n1 , its TGI was > 100 µM
